pIC50: −log10 of the molar value.
Values of pIC50 reported for ASK1 kinase (Homo sapiens (Human)) appear below.
observed_property: pIC50

# compound, reported_value
measured = [
    ("Cc1cc(F)c(C(=O)Nc2cccc(-c3nnnn3C(C)C)n2)cc1-c1cc(C2CC2)on1 [Example 71]", "7.00 to 8.00"),
    ("Cc1cc(F)c(C(=O)Nc2cccc(-c3nnnn3[C@H](C)CO)n2)cc1-c1cnn(C(C)C)c1 [Example 50]", "8.00 to 9.00"),
    ("Cc1cc(F)c(C(=O)Nc2cccc(-c3nnnn3[C@H](C)CO)n2)cc1-c1cnn(C(F)(F)F)c1 [Example 57]", "8.00 to 9.00"),
    ("Cc1cnc(C(=O)Nc2cccc(-c3nnnn3[C@H](C)CO)n2)cc1-c1ccc(C2CC2)s1 [Example 45]", "8.00 to 9.00"),
    ("Cc1cnc(C(=O)Nc2cccc(-c3nnnn3C(C)C)n2)cc1-c1cnn(C(C)(C)C)c1 [Example 20]", "8.00 to 9.00"),
    ("Cc1cc(F)c(C(=O)Nc2cccc(-c3nnnn3C(C)C)n2)cc1-c1ccncc1 [Example 66]", "7.00 to 8.00"),
    ("Cc1cnc(C(=O)Nc2cccc(-c3nnnn3[C@H](C)CO)n2)cc1-c1cnn(C(C)(C)C)c1 [Example 22]", "8.00 to 9.00"),
]

Every entry's value here was drawn from patent US11008304B2.
